Below, each of the compounds is paired with its reported melting point value.

// known answers, use as guide
| smiles code | melting point |
| --- | --- |
| Cc1cc(-c2c(Cl)c(C(F)(F)F)nn2-c2ccc(S(C)(=O)=O)nc2)ccc1-c1cscn1 | 81 to 83 °C |
| Cc1cc(-c2cc(C(F)(F)C(F)(F)F)nn2-c2ccc(S(C)(=O)=O)nc2)ccc1-c1cscn1 | 120.8 °C |
| Cc1nc(-c2ccc(-c3cc(C(F)(F)F)nn3-c3ccc(S(C)(=O)=O)nc3)cc2)cs1 | 176.9 °C |
| CS(=O)(=O)c1ccc(-n2nc(C(F)(F)F)cc2-c2ccc(-c3ccc(Cl)s3)cc2)cn1 | 155 to 156 °C |
| COC(=O)c1cc(-c2ccc(-c3cscn3)c(C)c2)n(-c2ccc(S(C)(=O)=O)cn2)n1 | 144 to 145 °C |
| CS(=O)(=O)c1ccc(-n2nc(C(F)(F)F)cc2-c2ccc(-c3cscn3)cc2Cl)nc1 | 166.1 °C |
| CCc1c(C(F)(F)F)nn(-c2ccc(S(C)(=O)=O)cn2)c1-c1ccc(-c2cscn2)c(C)c1 | 163 to 164 °C |
| CS(=O)(=O)c1ccc(-n2nc(C(F)(F)F)c(F)c2-c2ccc(-c3cscn3)cc2)cn1 | 170.5 to 171 °C |
| CS(=O)(=O)c1ccc(-n2nc(C(F)(F)F)cc2-c2ccc(-c3ccco3)cc2)nn1 | 209 to 212 °C |
| CS(=O)(=O)c1ccc(-n2nc(C(F)(F)F)cc2-c2ccc(-c3ccco3)cc2)cn1 | 106 to 109 °C |

Which melting point reading was recorded for the compound CCc1cc(-c2cc(C(F)(F)F)nn2-c2ccc(S(C)(=O)=O)cn2)ccc1-c1cscn1 ?
165.8 °C

Which melting point reading was recorded for the compound Cc1cc(-c2cc(C(F)F)nn2-c2ccc(S(C)(=O)=O)cn2)ccc1-c1cscn1 ?
156.9 °C

Which melting point reading was recorded for the compound Cc1cc(-c2c(C#N)cnn2-c2ccc(S(C)(=O)=O)cn2)ccc1-c1cscn1 ?
223 to 224 °C

Which melting point reading was recorded for the compound Cc1cc(-c2cc(C(F)(F)F)nn2-c2ccc(S(C)(=O)=O)cn2)ccc1-c1ccco1 ?
160 to 161.1 °C

Which melting point reading was recorded for the compound Cc1cc(-c2cc(C(F)(F)F)nn2-c2ccc(S(C)(=O)=O)cn2)ccc1-c1cocn1 ?
154 to 155 °C

Which melting point reading was recorded for the compound CS(=O)(=O)c1ccc(-n2nc(C(F)(F)F)cc2-c2ccc(-c3cscn3)c(Cl)c2)cn1 ?
95 to 100 °C

Which melting point reading was recorded for the compound CS(=O)(=O)c1ccc(-n2nc(C(F)(F)F)cc2-c2ccc(-c3cscn3)cc2F)nc1 ?
194.3 °C

Which melting point reading was recorded for the compound Cc1cc(-c2cc(C(F)(F)F)nn2-c2ccc(S(C)(=O)=O)cn2)ccc1-c1ncco1 ?
174.5 to 176 °C

Which melting point reading was recorded for the compound CS(=O)(=O)c1ccc(-n2nc(C(F)(F)F)cc2-c2ccc(-c3cscn3)c(Cl)c2)nc1 ?
175.6 °C

Which melting point reading was recorded for the compound CS(=O)(=O)c1ccc(-n2nc(C(F)(F)F)cc2-c2ccc(-c3cscn3)cc2)nc1 ?
210 to 211 °C

Which melting point reading was recorded for the compound Cc1ccc(-c2ccc(-c3cc(C(F)(F)F)nn3-c3ccc(S(C)(=O)=O)nc3)cc2)s1 ?
123 to 124 °C

Which melting point reading was recorded for the compound Cc1cc(-c2cc(C(F)(F)F)nn2-c2ccc(S(C)(=O)=O)cn2)ccc1-c1nn[nH]n1 ?
241 to 242 °C

###

metric: melting point

// known answers, use as guide
| compound | recorded result |
| --- | --- |
| Cc1cc(-c2cc(C(F)(F)F)nn2-c2ccc(S(C)(=O)=O)cn2)ccc1-c1cnn[nH]1 [Example 30] | 189 °C |
| CS(=O)(=O)c1cnc(-n2nc(C(F)(F)F)cc2-c2ccc(-c3ccco3)cc2)s1 [Example 37] | 188 to 190 °C |
| Cc1cc(-c2cc(C(F)(F)F)nn2-c2ccc(S(C)(=O)=O)cn2)ccc1-c1cscn1 [Example 2] | 179 to 182 °C |
| Cc1cc(-c2cc(C(F)(F)F)nn2-c2ccc(S(C)(=O)=O)cn2)ccc1-c1ccsc1 [Example 16] | 165 to 166 °C |
| CS(=O)(=O)c1ccc(-n2nc(C(F)(F)F)cc2-c2ccc(-c3cscn3)c(F)c2)nc1 [Example 24] | 187.5 °C |
| Cc1cc(-c2cc(C(F)(F)F)nn2-c2ccc(S(C)(=O)=O)cn2)c(C)cc1-c1cscn1 [Example 10] | 214 to 215 °C |
| COc1cc(-c2cc(C(F)(F)F)nn2-c2ccc(S(C)(=O)=O)cn2)ccc1-c1cscn1 [Example 20] | 170 to 175 °C |

Which melting point reading was recorded for the compound Cc1cc(-c2cc(C(F)(F)F)nn2-c2ccc(S(C)(=O)=O)c(F)n2)ccc1-c1cscn1 [Example 25] ?
158.9 °C
